System: kochia (Kochia scoparia)
Assay: Test C greenhouse herbicide test, postemergence
Type: in vivo
Conditions: Postemergence, 31 g ai/ha; 0 to 100 scale (0 no effect, 100 complete control)
MEASURED PARAMETER: Kochia plant response rating

{"COMPOUND": "CCc1sc2ccc(C)cc2c1-c1c(O)c(C)nn(C)c1=O [Compound 47]", "TARGET SYSTEM": "kochia (Kochia scoparia)", "MEASURED PARAMETER": "Kochia plant response rating", "MEAS VALUE": 75}
{"COMPOUND": "Cc1nn(C)c(=O)c(-c2c(C)sc3c(C)cc(Cl)cc23)c1O [Compound 35]", "TARGET SYSTEM": "kochia (Kochia scoparia)", "MEASURED PARAMETER": "Kochia plant response rating", "MEAS VALUE": 30}
{"COMPOUND": "Cc1cc(C)c2ccccc2c1-c1c(O)c(C)nn(C)c1=O [Compound 21]", "TARGET SYSTEM": "kochia (Kochia scoparia)", "MEASURED PARAMETER": "Kochia plant response rating", "MEAS VALUE": 80}
{"COMPOUND": "Cc1ccc2ccccc2c1-c1c(OC(=O)OC(C)C)c(C)nn(C)c1=O [Compound 72]", "TARGET SYSTEM": "kochia (Kochia scoparia)", "MEASURED PARAMETER": "Kochia plant response rating", "MEAS VALUE": 60}
{"COMPOUND": "CCC(=O)Oc1c(C)nn(C)c(=O)c1-c1c(C)ccc2ccccc12 [Compound 78]", "TARGET SYSTEM": "kochia (Kochia scoparia)", "MEASURED PARAMETER": "Kochia plant response rating", "MEAS VALUE": 45}
{"COMPOUND": "Cc1nn(C)c(=O)c(-c2c(C)sc3ccc(Br)cc23)c1O [Compound 22]", "TARGET SYSTEM": "kochia (Kochia scoparia)", "MEASURED PARAMETER": "Kochia plant response rating", "MEAS VALUE": 90}
